Give measured MDR1-MDCK efflux ratio for each item. Keep answers brief.
The answer should be a number; do not append a unit.

### Prompt Endpoint output: MDR1-MDCK efflux ratio of COc1cc2c(cc1OC)CN(C(=O)C1CCCN(C(=O)Nc3ccccc3)C1)CC2 (stereo not drawn) . Value?
### Response 27

### Prompt Consider the compound "O=C(Cc1cccs1)NCc1ccccc1F" and give its measured MDR1-MDCK efflux ratio.
### Response 0.641

### Prompt Which MDR1-MDCK efflux ratio value belongs to "Cc1ccc(OCc2noc(-c3ccsc3)n2)cn1" ?
### Response 0.524

---

Define the label as criterion met when MDR1-MDCK efflux ratio is strictly less than 2 and as criterion not met in all remaining cases.

### Prompt Would you kindly verify if MDR1-MDCK efflux ratio of "COC(=O)Nc1ccc(Oc2nc3ccccc3o2)cc1" is strictly less than 2?
### Response criterion met

### Prompt Just wondering, is MDR1-MDCK efflux ratio of "COc1ccccc1OC1CCN(Cc2ccccc2C#N)CC1" below 2?
### Response criterion met

### Prompt Bench note: check whether "CON(C)C(=O)c1cc(C)ccc1NS(C)(=O)=O" shows MDR1-MDCK efflux ratio below 2
### Response criterion met

### Prompt Strictly below 2: is that where MDR1-MDCK efflux ratio of "CN(CCc1ccccn1)C(=O)Nc1nncs1" sits?
### Response criterion met

### Prompt # strict comparison: is reported MDR1-MDCK efflux ratio < 2? input = "Cc1cc(C(=O)N2CCN(C(=O)C3CCC3)CC2)c(O)cn1"
### Response criterion not met

### Prompt Please determine if "c1cc(-c2nnc(NCc3cncs3)o2)ccn1" is below 2 in terms of MDR1-MDCK efflux ratio.
### Response criterion met

### Prompt Does the reported MDR1-MDCK efflux ratio of "COc1ccc(-c2nnc3ccc(C(F)(F)F)cn23)cc1OC(C)C" stay below 2?
### Response criterion met

### Prompt Item "Cc1nc(N2CCn3ccnc3C2)c2cnn(C)c2n1" : MDR1-MDCK efflux ratio beneath 2, strictly?
### Response criterion not met

### Prompt Here's an entry: CN(C(=O)c1cc(N2CCNC2=O)ccc1F)C1CCC(N)CC1 (centres undefined) . Is its MDR1-MDCK efflux ratio below 2?
### Response criterion met

---

test.readout: intrinsic clearance, rat liver microsomes (mL/min/kg)
Reply with just the number (in mL/min/kg).

### Prompt Value lookup for intrinsic clearance, rat liver microsomes; key = "Cc1ccc(=O)n(CC2(O)CCN(Cc3ccc4ccccc4n3)CC2)n1"
### Response 90.1

### Prompt Given the entry "c1ccc(-n2cc(CNc3ncccn3)cn2)cc1" , report its measured intrinsic clearance, rat liver microsomes.
### Response 181

### Prompt What value of measured intrinsic clearance, rat liver microsomes is listed for Cc1cc(Nc2ccc(F)cn2)cc(C2CCN(C(=O)COc3ccccc3)C2)n1 (configuration not stated) ?
### Response 664

### Prompt Can you look up the measured intrinsic clearance, rat liver microsomes of "CCOc1c2c(c(OCC)c3ccccc13)C(=O)N(c1ccc(CC(=O)NS(=O)(=O)c3ccccc3)cc1)C2" for me?
### Response 17.3

### Prompt Returns the measured intrinsic clearance, rat liver microsomes for the input compound. Input: "O=c1c(CO)cc2cc3c(cc2n1Cc1ccccn1)CCC3"
### Response 1170

### Prompt Name the reported intrinsic clearance, rat liver microsomes value associated with the compound "c1ccc2nc(N3CCCC4(CCNCC4)CC3)cnc2c1"
### Response 495

### Prompt Dear colleague, I am looking for the recorded intrinsic clearance, rat liver microsomes of the following compound: "C[C@@H]1CN(C(=O)CC(c2ccccc2)c2ccccc2)C[C@H](C)O1"
### Response 1900

### Prompt Please report the recorded intrinsic clearance, rat liver microsomes for "Cn1cnnc1-c1cccc(NS(=O)(=O)c2ccc(N3CCCC3=O)cc2)c1" .
### Response 18

### Prompt Value lookup for intrinsic clearance, rat liver microsomes; key = O=C(C1CCCN(S(=O)(=O)c2ccccc2)C1)N1CCc2ccccc2C1 (configuration not stated)
### Response 3170

---

# y = intrinsic clearance, rat liver microsomes below 900 mL/min/kg (exclusive); n = intrinsic clearance, rat liver microsomes at/above 900 mL/min/kg

### Prompt Please let me know if "CCN(C/C=C/c1ccc(F)cc1)Cc1nc(COC)no1" shows intrinsic clearance, rat liver microsomes below 900 mL/min/kg.
### Response y

### Prompt Lab note: intrinsic clearance, rat liver microsomes threshold 900 mL/min/kg. Does this compound come in strictly under it? CC(=O)N1CCCC(C(=O)N2CCc3c(cccc3C(C)C)C2)C1 (stereo not drawn)
### Response y

### Prompt Lab note: intrinsic clearance, rat liver microsomes threshold 900 mL/min/kg. Does this compound come in strictly under it? "CCOc1ccc(CC(=O)NCCn2cccnc2=O)cc1"
### Response y

### Prompt Quick check: does "COc1cc(C)cc(OC)c1-c1ccc(-c2nn[nH]n2)cc1" have intrinsic clearance, rat liver microsomes under 900 mL/min/kg?
### Response y

### Prompt Please determine if "COc1ccccc1C(=O)NCc1nc(C)cc(N2CCCCC2)n1" is below 900 mL/min/kg in terms of intrinsic clearance, rat liver microsomes.
### Response n

### Prompt Strictly below 900 mL/min/kg in intrinsic clearance, rat liver microsomes? "CCc1cc2c(N(C)CCO)ncnc2s1"
### Response y

### Prompt Please indicate whether the reported intrinsic clearance, rat liver microsomes of "O=C(N[C@H](CO)CC1CCCCC1)c1cccc(-c2cnccn2)c1" is strictly below 900 mL/min/kg.
### Response n

### Prompt Check if intrinsic clearance, rat liver microsomes falls below 900 mL/min/kg for "N#Cc1ccc(C(=O)Nn2cnnc2)cc1" .
### Response y

---

test.readout: intrinsic clearance, rat liver microsomes (mL/min/kg)
State the answer as a number, implicitly in mL/min/kg.

### Prompt Looking for the measured intrinsic clearance, rat liver microsomes of "Cc1nc(CCN2C(=O)NC(C)(C)C2=O)cs1" , can you help?
### Response 21.7

### Prompt Find the recorded intrinsic clearance, rat liver microsomes belonging to "Nc1ccnn1Cc1ccc(Cl)c(F)c1" and report it.
### Response 36.6

### Prompt What measured intrinsic clearance, rat liver microsomes goes with "Cc1cc(NC(=O)c2c(F)cccc2Cl)no1" ?
### Response 26

### Prompt Sample "CC(=O)Nc1sc2c(c1-c1nc3ccccc3s1)CCN(C(C)C)C2" — what was its intrinsic clearance, rat liver microsomes?
### Response 231

### Prompt Query: intrinsic clearance, rat liver microsomes; subject: "Cc1ccc(-c2cn(CC3CCN(Cc4c[nH]c(C)n4)CC3)nn2)cc1"
### Response 32.4

### Prompt Suppose we examine the compound "O=C(CSc1ncn[nH]1)N(C1CCCCC1)C1CCCCC1" ; what intrinsic clearance, rat liver microsomes value has been reported?
### Response 1410

### Prompt Name the reported intrinsic clearance, rat liver microsomes value associated with the compound "Cc1cccc(NC(=O)CN(C)Cc2nc3ccc(Cl)cc3c(=O)[nH]2)c1C"
### Response 1270

---

reported.conditions: pH 6.8
test.readout: aqueous solubility (µg/mL)
State just the number; it will be interpreted in µg/mL.

### Prompt Looking for the measured aqueous solubility of "CSCc1csc(NC(C)=O)n1" , can you help?
### Response 27.9

### Prompt Which aqueous solubility value is on record for "O=C(NC1CCCCCC1)c1ccc(CSc2nc3ccccc3[nH]2)cc1" ?
### Response 2.71

### Prompt # get_value(readout='aqueous solubility', item= "Cn1cncc1-c1ncccc1C(=O)N1CCCC1" )
### Response 54.2

### Prompt Request the reported aqueous solubility associated with "Cc1ccc(C(=O)N2CCC(Cc3ccccc3-c3ccccc3)(C(=O)N(C)C)CC2)s1"
### Response 23.8

### Prompt What value of aqueous solubility has been recorded for this entry: "Cc1ccc(C)n1-c1ccc(CNS(C)(=O)=O)cc1"
### Response 24.2

### Prompt Given the entry "CCn1cc(C2CCN(Cc3ccc(C#N)cc3)CC2)cn1" , report its measured aqueous solubility.
### Response 43

### Prompt Could you share which aqueous solubility value was measured for "CCONC(=O)c1sc(C)nc1C" ?
### Response 29

### Prompt # get_value(readout='aqueous solubility', item= "O=C(CNC(=O)c1ccc(Cl)cc1)Nc1nc(-c2ccc3ccccc3c2)cs1" )
### Response 0.4

### Prompt Given "CCOc1cc2c(cc1CCC(=O)N1CCC(Cc3ncncc3C(N)=O)CC1)CCC2" , state its recorded aqueous solubility.
### Response 75.2

### Prompt Consider the molecule "Cc1sc2nc(CN3CCC(C)CC3)nc(N3CCN(c4cnccn4)CC3)c2c1C" and give its measured aqueous solubility.
### Response 42

### Prompt State the recorded aqueous solubility for this entry: "CCOC(=O)N1CCN(C(=O)c2ccc3c(c2)OCO3)CC1"
### Response 53

### Prompt Name the recorded aqueous solubility for "CC(C)Cn1cnc2c1c(=O)[nH]c(=O)n2CC(C)C" .
### Response 55.3

### Prompt Query: aqueous solubility; subject: "Cc1cnc(-n2cnnc2)c(-c2cccc(Cl)c2Cl)c1"
### Response 18.6

### Prompt Given "CCc1nc(COc2ccccc2Br)no1" , state its recorded aqueous solubility.
### Response 21.9

### Prompt I am curious: what aqueous solubility value has been reported for "Cc1cc(OCC(=O)N(C)C2CCCCCCC2)no1" ?
### Response 43.9

### Prompt Which value of aqueous solubility has been reported for "CC(=O)Nc1ccc(S(=O)(=O)NC2=NCN(Cc3ccccc3)CN2)cc1" in the records?
### Response 61

### Prompt Sample "NCCn1cc(NC(=O)c2ccccc2)cn1" — what was its aqueous solubility?
### Response 79.1

### Prompt What does the data say about its aqueous solubility? Entry: "CC1CCN(Cc2ccc(NC(=O)c3ccccn3)cc2)CC1"
### Response 40.8

### Prompt Look up aqueous solubility for this molecule: "C[C@@H]1CCN(C(=O)CC#N)C[C@@H]1N(C)c1ncnc2[nH]ccc12"
### Response 41.2

### Prompt Name the reported aqueous solubility value associated with the molecule "COc1cc(C=C2C(=O)NN(c3ccccc3)C2=O)ccc1OCC(N)=O"
### Response 29.7

### Prompt What does the record list as aqueous solubility for "CN(CC(=O)Nc1ccncc1)C1CCCC1" ?
### Response 40.8

### Prompt Return reported aqueous solubility; argument: "CCN(Cc1ccncc1)[C@@H]1CN(C(=O)c2ccccc2)C[C@H]1O"
### Response 115

### Prompt Consider the molecule "CC(=O)N1CCC(c2ccc(C(=O)O)cn2)CC1" and give its measured aqueous solubility.
### Response 50.6

### Prompt So what does the record say about aqueous solubility for "Cc1nnc(N2CC[C@H](O)C2)c(C#N)c1C" ?
### Response 31.2

### Prompt State the recorded aqueous solubility for this entry: "CC(C)(O)CNc1nc(Nc2ccnc(C(F)(F)F)c2)nc(-c2cccc(C(F)(F)F)n2)n1"
### Response 0.14

### Prompt Look at this molecule and give its reported aqueous solubility. "Cn1cc(-c2nc(C(=O)Nc3ccc4c(c3)OCCCO4)cs2)cn1"
### Response 34

### Prompt Field request: aqueous solubility | item: "Cc1ccc(CN(C)c2ncnc3c2cnn3C)o1"
### Response 40.9

### Prompt I'd like to know its aqueous solubility. The molecule in question is "Cc1ccnc(NC(=O)C2CCN(CCc3cccs3)CC2)c1"
### Response 65.5

### Prompt Can you share its aqueous solubility? I mean this molecule: "CN(Cc1sccc1Br)c1nccnc1C#N"
### Response 8.5

### Prompt What value of aqueous solubility has been recorded for this entry: "CNC(=O)c1cccc(Oc2ncnc3c2CN(C)CC3)c1"
### Response 46.9

### Prompt Look up aqueous solubility: "Cn1ccnc1CN(C(=O)c1[nH]c2ccccc2c1Cl)C1CC1"
### Response 62.3

### Prompt Reported aqueous solubility for "CCOc1ccc(C(=O)Cn2c(=O)n(-c3ccc(F)cc3)c3nc(C)nc(C(N)=O)c32)cc1" : what is it?
### Response 0.39

### Prompt aqueous solubility for "O=C1NC(c2ccccc2)=N/C1=C/c1ccc2c(c1)OCO2" ?
### Response 0.31

### Prompt What aqueous solubility value was documented for this molecule, "CC(C)Cn1c(=O)[nH]c(=O)c2c1nc1n2CCCCC1" ?
### Response 62.7

### Prompt Which aqueous solubility reading was recorded for the molecule "CS(=O)(=O)Cc1ccn(-c2ccccc2)n1" ?
### Response 32.2

### Prompt Give the measured aqueous solubility of "Cc1cccc(NCCc2cn3c(n2)CCCC3)n1" .
### Response 31

### Prompt Endpoint output: aqueous solubility of "CCC(=O)NCCNC(=O)c1cc(-c2ccccc2)nc2ccccc12" . Value?
### Response 18.7

### Prompt Given the molecule "Cc1cccc(Nc2ccc(C3CCN(C(=O)c4cc5cc(F)ccc5n4C)CC3)nc2)n1" , what is its reported aqueous solubility?
### Response 0.19

### Prompt What measured aqueous solubility goes with "CCc1cccc(NC(=O)COC(=O)c2cnc(C)cn2)c1" ?
### Response 56.1

### Prompt // returns reported aqueous solubility for input "Cc1ccc(-c2nc(-c3ccncc3)n[nH]2)cc1"
### Response 20

### Prompt Please give the measured aqueous solubility for this molecule: "Cc1ccc(NC(=O)CN2CCCN(c3ccc(C(F)(F)F)cn3)CC2)cc1"
### Response 12.9

### Prompt Suppose we examine the molecule "NS(=O)(=O)OC[C@@H]1C[C@@H](n2ccc3c(N[C@H]4CCc5ccccc54)ncnc32)C[C@@H]1O" ; what aqueous solubility value has been reported?
### Response 44.4
